Settings: in acetonitrile, 313.15 K
Property: solubility (mole fraction)

Enquiry: Which solubility (mole fraction) is reported for this compound? O=C1Cc2cc(F)ccc2N1
Return: 0.0537

* * *

Conditions: in acetonitrile, 303.15 K
Property: solubility (mole fraction)
Reply: number alone, nothing else.

Enquiry: Which solubility (mole fraction) is reported for this compound? O=C1Cc2cc(F)ccc2N1
Return: 0.0399

* * *

Conditions: in n-propanol, 308.15 K
Property: solubility (mole fraction)

Enquiry: Which solubility (mole fraction) is reported for this molecule? O=C1Cc2cc(F)ccc2N1
Return: 0.0688

* * *

Settings: in n-hexane, 303.15 K
Property: solubility (mole fraction)
Reply: number alone, nothing else.

Enquiry: Which solubility (mole fraction) is reported for this compound? O=C1Cc2cc(F)ccc2N1
Return: 0.00125

* * *

Details: in isopropanol, 293.15 K
Property: solubility (mole fraction)
Reply: number alone, nothing else.

Enquiry: Which solubility (mole fraction) is reported for this compound? O=C1Cc2cc(F)ccc2N1
Return: 0.0309

* * *

Conditions: in n-hexane, 293.15 K
Property: solubility (mole fraction)
Reply: number alone, nothing else.

Enquiry: Which solubility (mole fraction) is reported for this compound? O=C1Cc2cc(F)ccc2N1
Return: 0.000784

* * *

Conditions: in acetone, 323.15 K
Property: solubility (mole fraction)
Reply: number alone, nothing else.

Enquiry: Which solubility (mole fraction) is reported for this molecule? O=C1Cc2cc(F)ccc2N1
Return: 0.16

* * *

Settings: in methanol, 288.15 K
Property: solubility (mole fraction)
Reply: number alone, nothing else.

Enquiry: Which solubility (mole fraction) is reported for this molecule? O=C1Cc2cc(F)ccc2N1
Return: 0.0358

* * *

Conditions: in THF, 308.15 K
Property: solubility (mole fraction)
Reply: number alone, nothing else.

Enquiry: Which solubility (mole fraction) is reported for this compound? O=C1Cc2cc(F)ccc2N1
Return: 0.162

* * *

Details: in ethyl acetate, 303.15 K
Property: solubility (mole fraction)

Enquiry: Which solubility (mole fraction) is reported for this compound? O=C1Cc2cc(F)ccc2N1
Return: 0.0265

* * *

Settings: in acetone, 313.15 K
Property: solubility (mole fraction)
Reply: number alone, nothing else.

Enquiry: Which solubility (mole fraction) is reported for this molecule? O=C1Cc2cc(F)ccc2N1
Return: 0.123

* * *

Details: in methanol, 283.15 K
Property: solubility (mole fraction)
Reply: number alone, nothing else.

Enquiry: Which solubility (mole fraction) is reported for this compound? O=C1Cc2cc(F)ccc2N1
Return: 0.0296

* * *

Conditions: in DMF, 278.15 K
Property: solubility (mole fraction)
Reply: number alone, nothing else.

Enquiry: Which solubility (mole fraction) is reported for this compound? O=C1Cc2cc(F)ccc2N1
Return: 0.226

* * *

Details: in acetone, 318.15 K
Property: solubility (mole fraction)

Enquiry: Which solubility (mole fraction) is reported for this compound? O=C1Cc2cc(F)ccc2N1
Return: 0.14

* * *

Conditions: in acetonitrile, 298.15 K
Property: solubility (mole fraction)
Reply: number alone, nothing else.

Enquiry: Which solubility (mole fraction) is reported for this compound? O=C1Cc2cc(F)ccc2N1
Return: 0.0344

* * *

Conditions: in acetonitrile, 318.15 K
Property: solubility (mole fraction)
Reply: number alone, nothing else.

Enquiry: Which solubility (mole fraction) is reported for this compound? O=C1Cc2cc(F)ccc2N1
Return: 0.0632

* * *

Settings: in methanol, 298.15 K
Property: solubility (mole fraction)
Reply: number alone, nothing else.

Enquiry: Which solubility (mole fraction) is reported for this compound? O=C1Cc2cc(F)ccc2N1
Return: 0.0504

All values here come from BigSolDB 2.1.
